procedure.text: Inhibition of H(+)/K(+) ATPase
measured.endpoint: pIC50

In the examples that follow, each entry is paired with its recorded pIC50.
> print(dat)
                               entry.smiles  result
1   Cc1cccc(C)c1-c1cc(-c2nc(C)c(C)[nH]2)co1     < 4
2  Cc1cccc(C)c1-c1cc(-c2nc(C)c(C)[nH]2)ccc1-c1ccncc1     < 4

Tell us which pIC50 value is on record for COc1c(-c2nc(C)c(C)[nH]2)cccc1-c1c(C)cccc1C
< 4
